Would you kindly list hERG current change (%, negative = inhibition) at 10uM for each of these molecules?
Target Under Test: human ether-à-go-go-related gene (hERG) potassium channel (human, UniProt Q12809);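 note: peak tail current of the secondary pulse compared with the same well before compound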
Sequence (Q12809 whole entry, looked up): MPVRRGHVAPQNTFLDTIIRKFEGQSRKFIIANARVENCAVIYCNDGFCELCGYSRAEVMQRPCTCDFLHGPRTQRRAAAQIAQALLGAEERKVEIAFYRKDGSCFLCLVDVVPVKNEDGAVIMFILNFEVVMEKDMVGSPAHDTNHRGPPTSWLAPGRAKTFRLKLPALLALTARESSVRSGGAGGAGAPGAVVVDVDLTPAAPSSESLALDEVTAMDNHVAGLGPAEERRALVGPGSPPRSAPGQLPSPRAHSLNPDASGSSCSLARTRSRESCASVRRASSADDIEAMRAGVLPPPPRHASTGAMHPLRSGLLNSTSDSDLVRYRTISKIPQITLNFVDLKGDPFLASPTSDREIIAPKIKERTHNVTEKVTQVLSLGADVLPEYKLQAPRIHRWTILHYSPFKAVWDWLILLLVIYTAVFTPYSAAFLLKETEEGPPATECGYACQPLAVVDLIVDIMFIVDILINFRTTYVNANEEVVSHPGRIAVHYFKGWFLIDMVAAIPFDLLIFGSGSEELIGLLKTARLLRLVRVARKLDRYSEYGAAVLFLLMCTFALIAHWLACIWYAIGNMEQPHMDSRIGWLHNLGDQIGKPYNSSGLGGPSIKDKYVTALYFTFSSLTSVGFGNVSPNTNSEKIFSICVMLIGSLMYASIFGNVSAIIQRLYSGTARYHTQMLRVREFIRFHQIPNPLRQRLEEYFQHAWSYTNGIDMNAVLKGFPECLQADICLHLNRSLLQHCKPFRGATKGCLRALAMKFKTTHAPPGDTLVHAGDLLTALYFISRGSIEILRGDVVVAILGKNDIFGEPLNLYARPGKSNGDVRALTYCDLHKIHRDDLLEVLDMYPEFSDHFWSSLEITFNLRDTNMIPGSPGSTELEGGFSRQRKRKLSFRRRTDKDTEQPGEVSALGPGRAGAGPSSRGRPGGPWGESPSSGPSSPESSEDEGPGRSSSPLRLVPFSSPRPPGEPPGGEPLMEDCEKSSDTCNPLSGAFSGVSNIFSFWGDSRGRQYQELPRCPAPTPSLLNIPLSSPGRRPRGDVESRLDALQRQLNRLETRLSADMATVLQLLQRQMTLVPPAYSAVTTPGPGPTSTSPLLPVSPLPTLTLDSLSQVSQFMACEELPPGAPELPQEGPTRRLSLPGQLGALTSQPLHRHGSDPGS
Experimental Protocol: primary screen, population patch clamp on CHO cells stably expressing hERG; higher = less effect of the substance
Experimental: Briefly, Chinese hamster ovary (CHO) cells stably expressing the hERG channel were dislodged from tissue culture flasks and dispensed into PPC plates. […] During the recording, background leak currents were estimated by a 100 ms step to -80 mV from an initial holding potential of -70 mV and subtracted from the subsequent current measurement. The campaign was conducted in two phases using slight differences in recording protocol. […]
Screen size: about 310,000 compounds; about 14,000 (4.5%) showed an effect of 50% or more. The effect is printed as a negative number. The sample holds strong results, similar compounds and a random draw of the others, so the mix is not that of the screen.
Please reply with the bare figure in % and do not write the unit itself.

Please fill in: hERG current change (%, negative = inhibition) at 10uM reported for CC1CN(C(=O)C2CC(=O)N(c3ccc(Cl)cc3)C2)CC(C)O1 (centres unmarked) = -13.3

Please fill in: hERG current change (%, negative = inhibition) at 10uM reported for CC1(/[N+]([O-])=C/c2cccc(Cl)c2)CCCCC1=O (centres unmarked) = 4.74

Please fill in: hERG current change (%, negative = inhibition) at 10uM reported for "C=CCN(CC=C)S(=O)(=O)c1ccc(NC(=S)NC(=O)/C=C/c2ccc(C)cc2)cc1" = 6.12

Please fill in: hERG current change (%, negative = inhibition) at 10uM reported for CC1=NN(c2ccccc2)C(=O)C1C(=O)c1cc([N+](=O)[O-])cc([N+](=O)[O-])c1 (centres unmarked) = 2

Please fill in: hERG current change (%, negative = inhibition) at 10uM reported for "O=C(NCCCN1CCCC1=O)c1cccc(S(=O)(=O)Nc2ccc(F)cc2)c1" = -24.5

Please fill in: hERG current change (%, negative = inhibition) at 10uM reported for O=C(NCCCn1ccnc1)C1CCCN(S(=O)(=O)c2ccc(F)cc2)C1 (centres unmarked) = 10.7

Please fill in: hERG current change (%, negative = inhibition) at 10uM reported for "COc1cc(C(=O)N(C)CCOc2ccccc2)ccc1OCC(=O)Nc1cccc(C(F)(F)F)c1" = -14.2

Please fill in: hERG current change (%, negative = inhibition) at 10uM reported for "CCN(CC)CCCNC(=O)c1ccc(OCC(=O)Nc2ccccc2C(F)(F)F)c(OC)c1" = -70.5

Please fill in: hERG current change (%, negative = inhibition) at 10uM reported for "Cc1ccc(NS(=O)(=O)c2ccc(NC(=O)N3CCCCC3)cc2)cc1" = 8.78

Please fill in: hERG current change (%, negative = inhibition) at 10uM reported for "CCCC1=Nc2cc(C(=O)NCCCN3CCOCC3)ccc2Sc2ccccc21" = -9.32

Please fill in: hERG current change (%, negative = inhibition) at 10uM reported for "O=C(c1cc(-c2ccc(Br)cc2)nc2ccccc12)N1CCC1" = -44.4

Please fill in: hERG current change (%, negative = inhibition) at 10uM reported for "O=C(c1cc(-c2ccc(Cl)cc2)nc2ccccc12)N1CCC1" = -59.7

Please fill in: hERG current change (%, negative = inhibition) at 10uM reported for "COc1ccc(C(=O)Nc2nnc(S(=O)(=O)N3CCCCCC3)s2)cc1OC" = -0.855

Please fill in: hERG current change (%, negative = inhibition) at 10uM reported for "CC(=O)c1cc(-c2ccccc2)n(CCC(=O)NC2CCCC2)c1C" = 0.876

Please fill in: hERG current change (%, negative = inhibition) at 10uM reported for "COc1cc(C(=O)NCc2ccc(S(N)(=O)=O)cc2)ccc1OCC(=O)Nc1cccc(C(F)(F)F)c1" = 15.5

Please fill in: hERG current change (%, negative = inhibition) at 10uM reported for O=C1CC(c2cccc(Cl)c2)CC(O)=C1C=NC1CCCC1 (centres unmarked) = -59.8

Please fill in: hERG current change (%, negative = inhibition) at 10uM reported for O=C(NCCCn1ccnc1)C1CCCN(S(=O)(=O)c2cc(Cl)ccc2Cl)C1 (centres unmarked) = -60.3

Please fill in: hERG current change (%, negative = inhibition) at 10uM reported for "CCN(CC(=O)Nc1ccc(OC)c(OC)c1)CC(=O)Nc1ccccc1C(F)(F)F" = -0.147

Please fill in: hERG current change (%, negative = inhibition) at 10uM reported for O=C1CC(c2ccccc2)CC(O)=C1C=NC1CCCCCC1 (centres unmarked) = 6.58

Please fill in: hERG current change (%, negative = inhibition) at 10uM reported for O=C1CC(c2ccccc2)CC(O)=C1C=NC1CCCC1 (centres unmarked) = -5.2

Please fill in: hERG current change (%, negative = inhibition) at 10uM reported for "O=C(c1cc(-c2ccccc2)nc2ccccc12)N1CCCC1" = 2.55

Please fill in: hERG current change (%, negative = inhibition) at 10uM reported for "Cc1ccc(OC(=O)c2cncc(Br)c2)c(C)c1" = 16

Please fill in: hERG current change (%, negative = inhibition) at 10uM reported for "Cc1cccc(N2CCN(CC(=O)Nc3nccs3)CC2)c1C" = -45.3
